The values you see were collected from ChEMBL document CHEMBL1614632.

Test: clinical
Measurement parameters: human, in vivo, iv, CL
Each entry falls into one class according to its clearance; the ranges are lower bin: < 0.7 mL/min/kg; middle bin: ≥ 0.7 mL/min/kg and < 2 mL/min/kg; upper bin: ≥ 2 mL/min/kg

Example entries begin here.
Compound	Assigned class
O=C(O)[C@@H]1C[C@@H](C2CCCCC2)CN1C(=O)CP(=O)(O)CCCCc1ccccc1 [FOSINOPRILAT]	lower bin
Nc1ccn(C[C@@H](CO)OCP(=O)(O)O)c(=O)n1.O.O [CIDOFOVIR]	upper bin
CCOc1cc(CC(=O)N[C@@H](CC(C)C)c2ccccc2N2CCCCC2)ccc1C(=O)O [REPAGLINIDE]	upper bin
CCCCCN(C)CCC(O)(P(=O)(O)O)P(=O)(O)O [IBANDRONIC ACID]	middle bin
Nc1c2c(nc3ccccc13)CCCC2 [TACRINE]	upper bin

Q: Categorize the following entry: C[C@H]([C@](O)(Cn1cncn1)c1ccc(F)cc1F)S(C)(=O)=O [GENACONAZOLE]
Result: lower bin

Q: Category lookup for the compound NC[C@@H]1CC[C@@H](N)[C@@H](O[C@H]2[C@H](O)[C@@H](O[C@H]3O[C@H](CO)[C@@H](O)[C@H](N)[C@H]3O)[C@H](N)C[C@@H]2N)O1 [DIBEKACIN]
Result: middle bin

* * *

Test: clinical
Measurement parameters: human, in vivo, iv
Bridge positions count the residues as written; N and C are the ends. Square brackets hold non-standard residues; d marks the D form. Peptide text beside a SMILES is read from it. hArg = N=C(N)NCCCC[C@H](N)C(=O)O; Mpa = O=C(O)CCS
# MRT values compiled below
Provide only the numeric value, understood in h.

Compound	Assay result
CCCC(C)C1(CC)C(=O)NC(=O)NC1=O (configuration not stated)	32
COc1cc2c(cc1O)CCN[C@]21CS[C@@H]2c3c(OC(C)=O)c(C)c4c(c3[C@H](COC1=O)N1[C@@H]2[C@H]2c3c(cc(C)c(OC)c3O)C[C@@H]([C@@H]1O)N2C)OCO4	35
N=C(N)NCCCC[C@@H]1NC(=O)CCSSC[C@@H](C(N)=O)NC(=O)[C@@H]2CCCN2C(=O)[C@H](Cc2c[nH]c3ccccc23)NC(=O)[C@H](CC(=O)O)NC(=O)CNC1=O [EPTIFIBATIDE] ([Mpa][hArg]GDWPC-NH2; disulfide 1-7)	2.4
COc1cc2c(N)nc(N3CCN(C(=O)OCC(C)(C)O)CC3)nc2c(OC)c1OC	3.1
CN1C(=O)C(O)N=C(c2ccccc2Cl)c2cc(Cl)ccc21 (configuration not stated)	6.7

Q: Given `CS(=O)(=O)OCCCCOS(C)(=O)=O` , respond with its MRT.
Result: 3.8

Q: Identify MRT associated with the compound `OC(Cn1cncn1)(Cn1cncn1)c1ccc(F)cc1F`
Result: 40

* * *

Measured fraction unbound of individual entries
Test: clinical
Measurement parameters: human, in vivo, iv
Just the number.

Consider the following illustrative entries.
Molecule	fraction unbound
Cn1nnnc1SCC1=C(C(=O)O)N2C(=O)[C@@H](NC(=O)[C@H](O)c3ccccc3)[C@H]2SC1 [CEFAMANDOLE]	0.25
O=c1[nH]cc(F)c(=O)[nH]1 [FLUOROURACIL]	0.64
Nc1ccc(O)c(C(=O)O)c1 [MESALAMINE]	0.39

Q: Complete the entry with fraction unbound for CC1(C)S[C@@H]2[C@H](NC(=O)[C@H](NC(=O)N3CCN(S(C)(=O)=O)C3=O)c3ccccc3)C(=O)N2[C@H]1C(=O)O [MEZLOCILLIN]
Result: 0.7

Q: Supply measured fraction unbound of O=C1OC2(c3ccc(O)cc3Oc3cc(O)ccc32)c2ccccc21 [FLUORESCEIN] in your reply.
Result: 0.11

Q: Recall and state the measured fraction unbound for CC(C)(C)NCC(O)COc1cccc2c1CC(O)C(O)C2 (stereo unspecified) [NADOLOL] .
Result: 0.14

* * *

Test: clinical
Measurement parameters: human, in vivo, iv, t1/2
Below, each entry is listed alongside its reported half-life.
Unit h implied. Number only.

Recorded results for 5 compounds are shown here.
Compound	Assay result
O=C1CN(/N=C/c2ccc([N+](=O)[O-])o2)C(=O)N1	0.97
CCC[C@H](N[C@@H](C)C(=O)N1[C@H](C(=O)O)C[C@@H]2CCCC[C@@H]21)C(=O)O	29
CC[C@@]1(O)C(=O)OCc2c1cc1n(c2=O)Cc2cc3c(N)cccc3nc2-1	7
Nc1nc2c(c(=O)[nH]1)N(C=O)C(CNc1ccc(C(=O)N[C@@H](CCC(=O)O)C(=O)O)cc1)CN2 (stereo partly drawn)	1.3
CC(=O)[C@H]1CC[C@H]2[C@@H]3CC[C@@H]4C[C@H](O)CC[C@]4(C)[C@H]3CC[C@]12C	4.7

Q: For `CN[C@@H]1[C@@H](O)[C@@H](O[C@@H]2[C@@H](O)[C@H](O[C@H]3OC(CN)=CC[C@H]3N)[C@@H](N)C[C@H]2N)OC[C@]1(C)O` , write its half-life.
Result: 2.4

Q: Fill in reported half-life for this entry: `CNS(=O)(=O)Cc1ccc2[nH]cc(CCN(C)C)c2c1`
Result: 1.7

Q: Could you please provide reported half-life for C[C@@H]1C(=O)O[C@H]2C[C@@]34[C@H]5C[C@@H](C(C)(C)C)[C@]36[C@@H](OC(=O)[C@@H]6O)O[C@@]4(C(=O)O5)[C@]21O [GINKGOLIDE A] ? Thanks!
Result: 3.8

Q: Specify measured half-life for `Cn1c(=O)c2[nH]cnc2n(C)c1=O.O` .
Result: 7.2

Q: Provide measured half-life value, entry: `Cn1cc[nH]c1=S`
Result: 2.4

Q: Specify half-life for `CCC#CC[C@H](C)[C@H](O)C#C[C@@H]1[C@H]2C/C(=C/COCC(=O)O)C[C@H]2C[C@H]1O` and stop.
Result: 1.1

Q: Give the reported half-life for this compound. COc1ccnc(C[S+]([O-])c2nc3ccc(OC(F)F)cc3[nH]2)c1OC (stereo not drawn)
Result: 1.9

* * *

Test: clinical
Measurement parameters: human, in vivo, iv, Vdss
Measurement kind: Vd (L/kg)
Quick note: give the figure in L/kg, leave out the unit.

Field: example entries. Status: answers known.
Compound	Vd (L/kg)
CN(C)CCC=C1c2ccccc2CCc2ccccc21 [AMITRIPTYLINE]	8.7
CCC1(c2cccc(O)c2)CCCCN(C)C1 (stereo not drawn) [MEPTAZINOL]	3.3
CN1CCOC(c2ccccc2)c2ccccc2C1 (stereo not drawn) [NEFOPAM]	5.6
COc1cccc(OC)c1C(=O)N[C@@H]1C(=O)N2[C@@H]1SC(C)(C)[C@@H]2C(=O)O [METHICILLIN]	0.32
O=C(O)P(=O)(O)O [FOSCARNET]	0.5

Q: Using known records, supply Vd for C=CC[N+]1([C@H]2C[C@H]3[C@@H]4CC[C@H]5C[C@H](O)[C@@H](N6CCOCC6)C[C@]5(C)[C@H]4CC[C@]3(C)[C@H]2OC(C)=O)CCCC1 [ROCURONIUM]
Result: 0.21

Q: Kindly indicate its recorded Vd. Item: Nc1nc(F)nc2c1ncn2[C@@H]1O[C@H](CO)[C@@H](O)[C@@H]1O [FLUDARABINE]
Result: 2.2

Q: Tell me Vd reported for Cc1[nH]cnc1CN1CCc2c(c3ccccc3n2C)C1=O [ALOSETRON]
Result: 1.1

Q: Input CC(=O)O[C@H]1C[C@]2(C)CC[C@H]3[C@@H]4C[C@H](N5CC[N+](C)(C)CC5)[C@H](OC(C)=O)[C@@]4(C)CC[C@@H]3[C@@]2(C)C[C@@H]1N1CC[N+](C)(C)CC1.[Br-].[Br-] [PIPERCURONIUM] , output reported Vd.
Result: 0.35

Q: Respond only with Vd recorded for CN(C)CCCN1c2ccccc2Sc2ccc(Cl)cc21 [CHLORPROMAZINE]
Result: 10

Q: Return value of Vd for input Cc1ccc(C(=O)Nc2ccc(S(=O)(=O)O)c3cc(S(=O)(=O)O)cc(S(=O)(=O)O)c23)cc1NC(=O)c1cccc(NC(=O)Nc2cccc(C(=O)Nc3cc(C(=O)Nc4ccc(S(=O)(=O)O)c5cc(S(=O)(=O)O)cc(S(=O)(=O)O)c45)ccc3C)c2)c1 [SURAMIN] , no commentary.
Result: 0.54

Q: Annotate the compound OCCN1C[C@H](O)[C@@H](O)[C@H](O)[C@H]1CO [MIGLITOL] with its measured Vd.
Result: 0.28

Q: Entry NC[C@H]1O[C@H](O[C@H]2[C@H](O[C@@H]3O[C@H](CO)[C@@H](O)[C@H]3O)[C@@H](O)[C@H](N)C[C@@H]2N)[C@H](N)[C@@H](O)[C@@H]1O [RIBOSTAMYCIN] needs its Vd filled in; supply it.
Result: 0.25

* * *

Test: clinical
Measurement parameters: human, in vivo, iv, Vdss
Quick rule for you: Vd at 0.6 L/kg or higher means 1, lower means 0.

Before answering, review these 5 worked examples.
Compound	Assigned class
O=C1CN=C(c2ccccn2)c2cc(Br)ccc2N1 [BROMAZEPAM]	1
O=C(NCCNCC(O)COc1ccc(O)cc1)N1CCOCC1 (stereo not given) [XAMOTEROL]	1
O=C(NCCN1CCOCC1)c1ccc(Cl)cc1 [MOCLOBEMIDE]	1
CC(C)(C)NC(=O)[C@H]1CC[C@H]2[C@@H]3CC=C4C=C(C(=O)O)CC[C@]4(C)[C@H]3CC[C@]12C [EPRISTERIDE]	0
C/C(=C\c1csc(C)n1)[C@@H]1C[C@@H]2O[C@]2(C)CCC[C@H](C)[C@H](O)[C@@H](C)C(=O)C(C)(C)[C@@H](O)CC(=O)N1 [IXABEPILONE]	1

Q: Does Vd meet or surpass 0.6 L/kg for CC1(C)S[C@@H]2[C@H](NC(=O)[C@H](N)c3ccccc3)C(=O)N2[C@H]1C(=O)O [AMPICILLIN] ?
Result: 0

Q: Say whether CN(C)CCCN1c2ccccc2Sc2ccccc21 [PROMAZINE] shows Vd of 0.6 L/kg or more.
Result: 1
